- System: Helicobacter pylori
- assay: Minimum inhibitory activity against clarithromycin- and metronidazole-resistant strain 16021
- Format: functional
readout.kind: MIC (µg/mL)
Report the value in µg/mL with no unit label.

Example molecules with recorded MIC:
Cc1ncc([N+](=O)[O-])n1CCO : 50
CC1(C)S[C@@H]2[C@H](NC(=O)[C@H](N)c3ccc(O)cc3)C(=O)N2[C@H]1C(=O)O : 0.025
O=C(N[C@H](CO)[C@H](O)c1ccc([N+](=O)[O-])cc1)C(Cl)Cl : 50

Proceeding to the next molecule to report its MIC.
q: Can you share its MIC? I mean this molecule: `NC(=O)Cc1csc(SC2=C(C(=O)O)N3C(=O)[C@@H](NC(=O)Cc4ccccc4)[C@H]3SC2)n1`
a: 0.0016

----------
- assay: Solubility at a pH of 4.0
- Assay type: physicochemical
- experimental.setup: pH 4
readout.kind: solubility (µg/mL)
Report the value in µg/mL with no unit label.

Cc1nnc(SC2=C(C(=O)O)N3C(=O)C(NC(=O)Cc4ccccc4)[C@H]3SC2)s1 (stereo partly drawn) : 1050
O=C(O)Cc1csc(SC2=C(C(=O)O)N3C(=O)[C@@H](NC(=O)Cc4ccccc4)[C@H]3SC2)n1 : 1820

Proceeding to the next compound to report its solubility.
q: Can you share its solubility? I mean this compound: `NC(=O)Cc1csc(SC2=C(C(=O)O)N3C(=O)[C@@H](NC(=O)Cc4ccccc4)[C@H]3SC2)n1`
a: 2210

----------
Let's look at some compounds and their measured MIC.
- System: Helicobacter pylori
- assay: Minimum inhibitory activity against clarithromycin- and metronidazole-resistant strain 15069
- Assay type: functional
Report the value in µg/mL with no unit label.

q: Can you share its MIC? I mean this compound: `NC(=O)Cc1csc(SC2=C(C(=O)O)N3C(=O)[C@@H](NC(=O)Cc4ccccc4)[C@H]3SC2)n1`
a: 0.0063

q: Please give the result for Cc1ncc([N+](=O)[O-])n1CCO [METRONIDAZOLE] too.
a: 25

q: Please give the result for CC1(C)S[C@@H]2[C@H](NC(=O)[C@H](N)c3ccc(O)cc3)C(=O)N2[C@H]1C(=O)O [AMOXICILLIN] too.
a: 0.2

q: Please give the result for O=C(N[C@H](CO)[C@H](O)c1ccc([N+](=O)[O-])cc1)C(Cl)Cl [CHLORAMPHENICOL] too.
a: 25

----------
- assay: Solubility at a pH of 2.0
- Type: physicochemical
- experimental.setup: pH 2
Let's look at some compounds and their measured solubility.
Report the value in µg/mL with no unit label.

NC(=O)Cc1csc(SC2=C(C(=O)O)N3C(=O)[C@@H](NC(=O)Cc4ccccc4)[C@H]3SC2)n1 : 431
O=C(O)Cc1csc(SC2=C(C(=O)O)N3C(=O)[C@@H](NC(=O)Cc4ccccc4)[C@H]3SC2)n1 : 125

Proceeding to the next compound to report its solubility.
q: Can you share its solubility? I mean this compound: Cc1nnc(SC2=C(C(=O)O)N3C(=O)C(NC(=O)Cc4ccccc4)[C@H]3SC2)s1 (stereo partly drawn)
a: 53
